# Read-out: Cytochrome P450 3A4 (Homo sapiens)
# protocol_notes: CLD_CYP3A4_48hr: CellzDirect (CLD) Gene Expression Assay for xenobiotic metabolism (CYP3A4) at 48 hours (AID 2283698)
Results filed as inconclusive are left out. Calls of active or inactive are those of the source. The calls were made as follows: active = hit-call score of the fitted dose curve at least 0.9, where 1 is the maximum; inconclusive = response in the unintended direction; inactive = score below 0.9.
Entry note: the call must match one of 1 (active), -1 (inactive)

Please review the entries below; each comes with its answer.
CSC(=O)c1c(C(F)F)nc(C(F)(F)F)c(C(=O)SC)c1CC(C)C    1
N#Cc1c(Cl)cccc1Cl    1
CC1(C)CON(Cc2ccccc2Cl)C1=O    1
Clc1nc(Cl)nc(Nc2ccccc2Cl)n1    -1
CCCCOCN(C(=O)CCl)c1c(CC)cccc1CC    1
Nc1c(Cl)c(F)nc(OCC(=O)O)c1Cl    1
Cc1nc(N(C)C)nc(OC(=O)N(C)C)c1C    -1
CC(C)N1C(=O)N(c2ccccc2)CSC1=NC(C)(C)C    1
COP(=O)(OC)O/C(C)=C/C(=O)N(C)C    -1
CCOc1cc(C(C)(C)C)ccc1C1COC(c2c(F)cccc2F)=N1 (stereo not drawn)    1

Prompt: What classification did CC1(C)C(C(=O)OC(C#N)c2cccc(Oc3ccccc3)c2)C1(C)C (stereo not drawn) end up with in this test?
Completion: 1

Prompt: What classification did `Cc1cc(C)nc(Nc2ccccc2)n1` end up with in this test?
Completion: -1

Prompt: What classification did `CC(C)N1C(=O)c2ccccc2NS1(=O)=O` end up with in this test?
Completion: -1
